- target-or-test-system: Cholinesterase (Homo sapiens)
- experiment-summary: Inhibition of human serum BChE using S-butyrylthiocholine iodide as substrate preincubated for 5 mins followed by substrate addition measured up to 180 secs by spectrophotometric analysis
property: IC50
Please make sure the unit comes right after the number.

[
  {
    "structure-string": "CCN(Cc1ccccc1)Cc1ccc(NC(=O)Cc2ccc(O)cc2)cc1",
    "property": "IC50",
    "measured-value": "2.03 µM"
  }
]

Request: Check the records and state IC50 for `CN(Cc1ccccc1)Cc1ccc(NC(=O)/C=C/c2ccc(O)c(O)c2)cc1`
Result: 8.01 µM

Request: Give the reported IC50 for this compound. `COc1cc(/C=C/C(=O)Nc2ccc(CN(C)Cc3ccccc3)cc2)ccc1O`
Result: 5.12 µM

###

- target-or-test-system: UniProt O42275
- Sequence (O42275 24-633 limits assumed): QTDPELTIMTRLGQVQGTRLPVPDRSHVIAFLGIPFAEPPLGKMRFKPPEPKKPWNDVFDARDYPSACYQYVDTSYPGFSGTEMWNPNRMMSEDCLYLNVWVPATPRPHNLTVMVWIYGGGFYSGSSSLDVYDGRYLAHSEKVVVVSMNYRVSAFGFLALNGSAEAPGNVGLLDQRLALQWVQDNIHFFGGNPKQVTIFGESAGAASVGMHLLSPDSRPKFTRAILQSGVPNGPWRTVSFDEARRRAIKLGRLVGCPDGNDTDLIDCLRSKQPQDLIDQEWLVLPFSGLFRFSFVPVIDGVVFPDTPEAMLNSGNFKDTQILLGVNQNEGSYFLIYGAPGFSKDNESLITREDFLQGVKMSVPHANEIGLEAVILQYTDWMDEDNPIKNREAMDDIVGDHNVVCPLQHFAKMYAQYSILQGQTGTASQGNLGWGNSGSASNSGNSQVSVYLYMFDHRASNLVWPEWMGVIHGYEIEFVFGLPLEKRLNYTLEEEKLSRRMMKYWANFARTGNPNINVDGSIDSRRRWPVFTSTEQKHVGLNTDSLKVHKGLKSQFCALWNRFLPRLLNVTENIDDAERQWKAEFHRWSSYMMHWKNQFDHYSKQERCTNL
- experiment-summary: Inhibition of electric eel AChE at 0.001 to 100 uM using acetylthiocholine iodide as substrate preincubated for 5 mins followed by substrate addition measured up to 180 secs by spectrophotometric analysis relative to control
Lab note: anything with inhibition at or over 40% counts as y; the rest go in n.

Before answering, review these 4 worked examples.
[
  {
    "structure-string": "CN(Cc1ccccc1)Cc1ccc(NC(=O)CCc2ccccc2)cc1",
    "classification": "y"
  },
  {
    "structure-string": "CN(Cc1ccccc1)Cc1ccc(NC(=O)/C=C/c2ccc([N+](=O)[O-])cc2)cc1",
    "classification": "n"
  },
  {
    "structure-string": "CCN(Cc1ccccc1)Cc1ccc(NC(=O)c2ccccc2)cc1",
    "classification": "n"
  },
  {
    "structure-string": "CN(Cc1ccccc1)Cc1ccc(NC(=O)c2ccccc2)cc1",
    "classification": "n"
  }
]

Moving on to another compound below.
Request: Decide: inhibition of `CCN(Cc1ccccc1)Cc1ccc(NC(=O)CCc2ccccc2)cc1` >= 40%?
Result: n

###

- target-or-test-system: Cholinesterase (Homo sapiens, UniProt P06276)
- Sequence (P06276 whole entry): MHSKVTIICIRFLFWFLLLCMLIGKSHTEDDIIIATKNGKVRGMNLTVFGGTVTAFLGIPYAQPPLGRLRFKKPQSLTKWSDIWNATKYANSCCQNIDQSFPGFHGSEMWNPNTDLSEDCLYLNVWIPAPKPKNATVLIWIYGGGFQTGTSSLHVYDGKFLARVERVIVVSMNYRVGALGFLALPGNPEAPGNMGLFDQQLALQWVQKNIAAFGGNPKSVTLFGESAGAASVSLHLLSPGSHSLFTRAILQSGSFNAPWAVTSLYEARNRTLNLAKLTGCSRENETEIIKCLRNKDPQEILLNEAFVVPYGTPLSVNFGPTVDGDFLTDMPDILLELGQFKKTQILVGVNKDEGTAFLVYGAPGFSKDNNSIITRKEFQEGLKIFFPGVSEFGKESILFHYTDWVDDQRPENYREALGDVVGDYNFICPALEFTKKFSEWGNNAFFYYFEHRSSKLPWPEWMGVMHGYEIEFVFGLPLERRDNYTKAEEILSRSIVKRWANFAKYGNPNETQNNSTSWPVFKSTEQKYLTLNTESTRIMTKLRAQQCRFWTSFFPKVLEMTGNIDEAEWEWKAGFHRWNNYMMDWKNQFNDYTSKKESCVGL
- experiment-summary: Inhibition of human serum BChE using S-butyrylthiocholine iodide as substrate preincubated for 5 mins followed by substrate addition measured up to 180 secs by spectrophotometric analysis
property: IC50 (nM)
Give the number; nM is assumed, so skip it.

Worked examples follow.
[
  {
    "structure-string": "CN(Cc1ccccc1)Cc1ccc(NC(=O)Cc2ccccc2)cc1",
    "IC50, nM": 4950
  },
  {
    "structure-string": "COc1ccc(CC(=O)Nc2ccc(CN(C)Cc3ccccc3)cc2)cc1O",
    "IC50, nM": 1290
  },
  {
    "structure-string": "COc1ccc(CC(=O)Nc2ccc(CN(C)Cc3ccccc3)cc2)cc1OC",
    "IC50, nM": 1050
  }
]

Request: # assay system Cholinesterase (Homo sapiens, UniProt P06276): give IC50 of `CN(Cc1ccccc1)Cc1ccc(NC(=O)Cc2ccc(O)c(O)c2)cc1`
Result: 950

Request: For Cholinesterase (Homo sapiens, UniProt P06276), give the measured IC50 of the entry `COc1ccc(/C=C/C(=O)Nc2ccc(CN(C)Cc3ccccc3)cc2)cc1`
Result: 6400

Request: // fetch IC50 for `CN(Cc1ccccc1)Cc1ccc(NC(=O)Cc2ccc(O)cc2)cc1` ; system: Cholinesterase (Homo sapiens, UniProt P06276)
Result: 4320

Request: Recall the reported IC50 of `CCN(Cc1ccccc1)Cc1ccc(NC(=O)Cc2ccc(OC)c(OC)c2)cc1` on Cholinesterase (Homo sapiens, UniProt P06276) and write it down.
Result: 1210

Request: Find the measured IC50 of `COc1ccc(/C=C/C(=O)Nc2ccc(CN(C)Cc3ccccc3)cc2)cc1OC` with Cholinesterase (Homo sapiens, UniProt P06276) as test system.
Result: 1560

Request: Tell me its IC50 on Cholinesterase (Homo sapiens, UniProt P06276): `CCN(Cc1ccccc1)Cc1ccc(NC(=O)Cc2ccc(O)c(O)c2)cc1`
Result: 2400

Request: Recall the reported IC50 of `CCN(Cc1ccccc1)Cc1ccc(NC(=O)Cc2ccc(OC)c(O)c2)cc1` when tested on Cholinesterase (Homo sapiens, UniProt P06276).
Result: 1460
